The measurements presented in this section are drawn from patent US20230226223A1.

# tgt: GFP-HTTQ74 reporter construct
# measurementDescription: cell-based or functional assay
assayMetric: Reduction of Aggregation (%), filter trap assay
Answer with a number only, understood to be in %.

Below: 5 binders and their reported Reduction of Aggregation (%), filter trap assay.
Construct 40, JB1-QBP1-QBP1 (7) (designed binder) MGKDYYQTLGLARGASDEEIKRAYRRQALRYHPDKNKEPGAEEKFKEIAEAYDVLSDPRKREIFDRYGEEGLKGSEAAAKSNWKWWPGIFDGGGGSSNWKWWPGIFDLE = 96
Construct 38, JB1-QBP1-QBP1 (5) (designed binder) MGKDYYQTLGLARGASDEEIKRAYRRQALRYHPDKNKEPGAEEKFKEIAEAYDVLSDPRKREIFDRYGEEGLKGSGGGGSSNWKWWPGIFDGGGGSSNWKWWPGIFDLE = 96.9
Construct 35, JB1-QBP1-QBP1 (2) (designed binder) MGKDYYQTLGLARGASDEEIKRAYRRQALRYHPDKNKEPGAEEKFKEIAEAYDVLSDPRKREIFDRYGEEGLKGSSNWKWWPGIFDEAAAKSNWKWWPGIFDLE = 97.9
Construct 46, JB1-QBP1-QBP1 (13) (designed binder) MGKDYYQTLGLARGASDEEIKRAYRRQALRYHPDKNKEPGAEEKFKEIAEAYDVLSDPRKREIFDRYGEEGLKGSGGGGSSNWKWWPGIFDEAAAKEAAAKSNWKWWPGIFDLE = 100
Construct 37, JB1-QBP1-QBP1 (4) (designed binder) MGKDYYQTLGLARGASDEEIKRAYRRQALRYHPDKNKEPGAEEKFKEIAEAYDVLSDPRKREIFDRYGEEGLKGSGGGGSSNWKWWPGIFDEAAAKSNWKWWPGIFDLE = 97

**Query** Reported Reduction of Aggregation (%), filter trap assay for Construct 43, JB1-QBP1-QBP1 (10) (designed binder) MGKDYYQTLGLARGASDEEIKRAYRRQALRYHPDKNKEPGAEEKFKEIAEAYDVLSDPRKREIFDRYGEEGLKGSSNWKWWPGIFDGGGGSGGGGSSNWKWWPGIFDLE : what is it?
**Result** 99.5
